Target: C-type lectin domain family 4 member E (Mus musculus)
Test: Agonist activity at Mincle in mouse RAW264.7 cells assessed as TNF-alpha secretion at 0.1 to 100 uM incubated for 18 to 24 hrs by ELISA
Type: cell-based
Activity calls are given as the source filed them. No cut-off for these calls is given here.
endpoint: Activity

CC(C)(C)c1ccc(O)c(C(=O)OC[C@H]2O[C@H](O[C@H]3O[C@H](COC(=O)c4cc(C(C)(C)C)ccc4O)[C@@H](O)[C@H](O)[C@H]3O)[C@H](O)[C@@H](O)[C@@H]2O)c1 = Active
CC(C)(C)c1cc(C(=O)OC[C@H]2O[C@H](O[C@H]3O[C@H](COC(=O)c4cc(C(C)(C)C)cc(C(C)(C)C)c4)[C@@H](O)[C@H](O)[C@H]3O)[C@H](O)[C@@H](O)[C@@H]2O)cc(C(C)(C)C)c1 = Active
CC(C)(C)c1cc(C(C)(C)C)c(O)c(C(=O)OC[C@H]2O[C@H](O[C@H]3O[C@H](COC(=O)c4c(O)c(C(C)(C)C)cc(C(C)(C)C)c4O)[C@@H](O)[C@H](O)[C@H]3O)[C@H](O)[C@@H](O)[C@@H]2O)c1O = Active
CC(C)(C)c1cc(C(=O)OC[C@H]2O[C@H](O[C@H]3O[C@H](COC(=O)c4cc(C(C)(C)C)c(O)c(C(C)(C)C)c4)[C@@H](O)[C@H](O)[C@H]3O)[C@H](O)[C@@H](O)[C@@H]2O)cc(C(C)(C)C)c1O = Active

* * *

Target: C-type lectin domain family 4 member E (Homo sapiens) (UniProt Q9ULY5)
Sequence (whole entry): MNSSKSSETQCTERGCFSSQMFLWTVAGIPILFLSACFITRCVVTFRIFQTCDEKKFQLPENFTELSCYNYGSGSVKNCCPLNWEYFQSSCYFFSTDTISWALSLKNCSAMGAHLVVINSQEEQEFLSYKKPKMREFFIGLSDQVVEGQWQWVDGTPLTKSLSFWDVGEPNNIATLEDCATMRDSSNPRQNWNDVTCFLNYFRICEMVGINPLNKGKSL
Test: Agonist activity at Mincle in human PBMC assessed as increase in TNF-alpha production at 1 to 1000 uM incubated for 18 to 24 hrs by ELISA
Activity calls are given as the source filed them. The calls are words filed in the database; no cut-off is given here.
endpoint: Activity

Answered examples (4):
COc1ccc(/C=C/C(=O)OC[C@H]2O[C@H](O[C@H]3O[C@H](COC(=O)/C=C/c4ccc(OC)c(OC)c4)[C@@H](O)[C@H](O)[C@H]3O)[C@H](O)[C@@H](O)[C@@H]2O)cc1OC = Active
COc1cc(C)c(C(=O)OC[C@H]2O[C@H](O[C@H]3O[C@H](COC(=O)c4c(C)cc(OC)cc4OC)[C@@H](O)[C@H](O)[C@H]3O)[C@H](O)[C@@H](O)[C@@H]2O)c(OC)c1 = Active
CCOc1cc(OCC)cc(C(=O)OC[C@H]2O[C@H](O[C@H]3O[C@H](COC(=O)c4cc(OCC)cc(OCC)c4)[C@@H](O)[C@H](O)[C@H]3O)[C@H](O)[C@@H](O)[C@@H]2O)c1 = Active
CC(C)(C)c1cc(C(=O)OC[C@H]2O[C@H](O[C@H]3O[C@H](COC(=O)c4cc(C(C)(C)C)cc(C(C)(C)C)c4O)[C@@H](O)[C@H](O)[C@H]3O)[C@H](O)[C@@H](O)[C@@H]2O)c(O)c(C(C)(C)C)c1 = Active

[Q] Look up Activity: COc1cc(/C=C/C(=O)OC[C@H]2O[C@H](O[C@H]3O[C@H](COC(=O)/C=C/c4cc(OC)c(OC)c(OC)c4)[C@@H](O)[C@H](O)[C@H]3O)[C@H](O)[C@@H](O)[C@@H]2O)cc(OC)c1OC
[A] Active

* * *

Target: C-type lectin domain family 4 member E (Homo sapiens)
Assay: Agonist activity at Mincle in human PBMC assessed as increase in TNF-alpha level at 0.1 to 100 uM incubated for 18 to 24 hrs by luminex multiplex assay
Activity calls are given as the source filed them. No cut-off for these calls is given here.
endpoint: Activity

Answered examples (4):
COc1cc(C)c(C(=O)OC[C@H]2O[C@H](O[C@H]3O[C@H](COC(=O)c4c(C)cc(OC)cc4OC)[C@@H](O)[C@H](O)[C@H]3O)[C@H](O)[C@@H](O)[C@@H]2O)c(OC)c1 = Active
COc1cc(/C=C/C(=O)OC[C@H]2O[C@H](O[C@H]3O[C@H](COC(=O)/C=C/c4cc(OC)c(OC)c(OC)c4)[C@@H](O)[C@H](O)[C@H]3O)[C@H](O)[C@@H](O)[C@@H]2O)cc(OC)c1OC = Active
CCOc1cc(OCC)cc(C(=O)OC[C@H]2O[C@H](O[C@H]3O[C@H](COC(=O)c4cc(OCC)cc(OCC)c4)[C@@H](O)[C@H](O)[C@H]3O)[C@H](O)[C@@H](O)[C@@H]2O)c1 = Active
COc1ccc(/C=C/C(=O)OC[C@H]2O[C@H](O[C@H]3O[C@H](COC(=O)/C=C/c4ccc(OC)c(OC)c4)[C@@H](O)[C@H](O)[C@H]3O)[C@H](O)[C@@H](O)[C@@H]2O)cc1OC = Active

Turning to the following molecule.
[Q] Look up Activity: CC(C)(C)c1cc(C(=O)OC[C@H]2O[C@H](O[C@H]3O[C@H](COC(=O)c4cc(C(C)(C)C)cc(C(C)(C)C)c4O)[C@@H](O)[C@H](O)[C@H]3O)[C@H](O)[C@@H](O)[C@@H]2O)c(O)c(C(C)(C)C)c1
[A] Active

* * *

Target: C-type lectin domain family 4 member E (Homo sapiens) (UniProt Q9ULY5)
Assay: Agonist activity at Mincle in human PBMC assessed as increase in IL-1beta secretion at 0.1 to 100 uM incubated for 18 to 24 hrs by luminex multiplex assay
Activity calls are given as the source filed them. The rule behind the calls is not given here.
endpoint: Activity

Answered examples (4):
COc1cc(C)c(C(=O)OC[C@H]2O[C@H](O[C@H]3O[C@H](COC(=O)c4c(C)cc(OC)cc4OC)[C@@H](O)[C@H](O)[C@H]3O)[C@H](O)[C@@H](O)[C@@H]2O)c(OC)c1 = Active
CC(C)(C)c1cc(C(=O)OC[C@H]2O[C@H](O[C@H]3O[C@H](COC(=O)c4cc(C(C)(C)C)cc(C(C)(C)C)c4O)[C@@H](O)[C@H](O)[C@H]3O)[C@H](O)[C@@H](O)[C@@H]2O)c(O)c(C(C)(C)C)c1 = Active
COc1ccc(/C=C/C(=O)OC[C@H]2O[C@H](O[C@H]3O[C@H](COC(=O)/C=C/c4ccc(OC)c(OC)c4)[C@@H](O)[C@H](O)[C@H]3O)[C@H](O)[C@@H](O)[C@@H]2O)cc1OC = Active
CCOc1cc(OCC)cc(C(=O)OC[C@H]2O[C@H](O[C@H]3O[C@H](COC(=O)c4cc(OCC)cc(OCC)c4)[C@@H](O)[C@H](O)[C@H]3O)[C@H](O)[C@@H](O)[C@@H]2O)c1 = Active

[Q] Quick check: Activity on C-type lectin domain family 4 member E (Homo sapiens) (UniProt Q9ULY5), item COc1cc(/C=C/C(=O)OC[C@H]2O[C@H](O[C@H]3O[C@H](COC(=O)/C=C/c4cc(OC)c(OC)c(OC)c4)[C@@H](O)[C@H](O)[C@H]3O)[C@H](O)[C@@H](O)[C@@H]2O)cc(OC)c1OC ?
[A] Active

All figures here come from ChEMBL document CHEMBL4376847.
